Hello, the source for this data is patent US10168342B2, in case you need it.

- Assayed system: AEA-DA lipid probe targets in Neuro2a cells (Mus musculus, UniProt Q80UU9)
- Sequence (Q80UU9 whole entry): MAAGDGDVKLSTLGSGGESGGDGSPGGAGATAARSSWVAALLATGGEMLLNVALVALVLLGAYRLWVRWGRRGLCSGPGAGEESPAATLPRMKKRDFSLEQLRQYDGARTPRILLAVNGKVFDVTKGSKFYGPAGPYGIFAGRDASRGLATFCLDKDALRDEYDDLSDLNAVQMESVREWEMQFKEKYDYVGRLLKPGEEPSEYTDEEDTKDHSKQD
- Reported conditions: competitor 25 μM
Consider the following compounds; for each one, report its SILAC ratio, Pgrmc2.
API note: the answer field is a bare number with no unit suffix.

**Q:** Provide the documented SILAC ratio, Pgrmc2 with AEA-DA lipid probe targets in Neuro2a cells (Mus musculus, UniProt Q80UU9) as the system for O=C(/C=C/c1cccnc1)NCCCCC1CCN(C(=O)c2ccccc2)CC1 [FK-866, reference compound]
**A:** 1.2

**Q:** Provide the documented SILAC ratio, Pgrmc2 with AEA-DA lipid probe targets in Neuro2a cells (Mus musculus, UniProt Q80UU9) as the system for C=CCN(C)CCCCCCOc1ccc(C(=O)c2ccc(Br)cc2)c(F)c1 [Ro 48-8071, reference compound]
**A:** 1.3

**Q:** Provide the documented SILAC ratio, Pgrmc2 with AEA-DA lipid probe targets in Neuro2a cells (Mus musculus, UniProt Q80UU9) as the system for CN1CCN(C(=O)c2c(-c3ccccc3)c3cc([N+](=O)[O-])ccc3n2C)CC1 [KML110]
**A:** 1.6

**Q:** Provide the documented SILAC ratio, Pgrmc2 with AEA-DA lipid probe targets in Neuro2a cells (Mus musculus, UniProt Q80UU9) as the system for CN1CCN(C(=O)c2[nH]c3ccc([N+](=O)[O-])cc3c2-c2ccccc2)CC1 [MJN228]
**A:** 1.5
